Experiment: Cell Viability - HUV-EC-C (AID 542);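 note: cells exposed to compound for 40 hours; nearly all actives have a fitted effect of over 35% in size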
Settings: HUV-EC-C endothelial cell viability, qHTS; series mostly up to 92.2 µM
Records with an inconclusive call do not appear. Activity calls are given as the source filed them. Calls come from the whole dose curve; as a rule, active = well fitted cell-killing curve with a large enough effect; inconclusive = small, poorly fitted or top-dose-only effect, or effect the other way; inactive = flat fitted curve, though single readings scatter.
Tick one outcome: active, inactive

Compound	Answer Label
c1ccc(Nc2ccc(Nc3ccccc3)cc2)cc1	inactive
CCCCOC(=O)c1ccccc1N	inactive
CCCCCC[N+](=O)[O-]	inactive
CCCBr	inactive
O=[N+]([O-])c1cc(Cl)c(Cl)c(Cl)c1	inactive
FC(Cl)(Cl)Cl	inactive

Qu. What did the test return for "Oc1cccc(Cl)c1Cl" ?
Ans. inactive

Qu. What did the test return for "O=C(O)c1cccc(Cl)c1" ?
Ans. inactive

Qu. What did the test return for "CC(C)[C@]12CC(=O)[C@H](C)[C@H]1C2" ?
Ans. inactive

Qu. What did the test return for "CN(C)c1ccc(N)cc1" ?
Ans. active
